- tgt: Adrenergic receptor alpha-2 (Rattus norvegicus, UniProt P22086+P19328+P22909)
- Sequence (P22086 whole entry): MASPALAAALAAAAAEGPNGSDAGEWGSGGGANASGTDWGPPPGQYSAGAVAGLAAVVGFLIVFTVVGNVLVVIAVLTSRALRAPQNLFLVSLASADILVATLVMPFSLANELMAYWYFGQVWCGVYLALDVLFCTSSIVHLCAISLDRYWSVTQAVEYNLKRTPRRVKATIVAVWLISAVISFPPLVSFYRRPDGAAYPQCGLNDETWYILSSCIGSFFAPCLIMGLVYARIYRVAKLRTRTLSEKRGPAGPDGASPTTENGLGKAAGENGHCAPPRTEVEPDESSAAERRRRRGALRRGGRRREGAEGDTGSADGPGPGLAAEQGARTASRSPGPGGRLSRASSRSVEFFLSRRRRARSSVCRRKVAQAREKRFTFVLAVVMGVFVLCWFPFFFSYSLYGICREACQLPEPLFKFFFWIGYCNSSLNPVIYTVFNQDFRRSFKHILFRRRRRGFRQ
- Sequence (P19328 whole entry): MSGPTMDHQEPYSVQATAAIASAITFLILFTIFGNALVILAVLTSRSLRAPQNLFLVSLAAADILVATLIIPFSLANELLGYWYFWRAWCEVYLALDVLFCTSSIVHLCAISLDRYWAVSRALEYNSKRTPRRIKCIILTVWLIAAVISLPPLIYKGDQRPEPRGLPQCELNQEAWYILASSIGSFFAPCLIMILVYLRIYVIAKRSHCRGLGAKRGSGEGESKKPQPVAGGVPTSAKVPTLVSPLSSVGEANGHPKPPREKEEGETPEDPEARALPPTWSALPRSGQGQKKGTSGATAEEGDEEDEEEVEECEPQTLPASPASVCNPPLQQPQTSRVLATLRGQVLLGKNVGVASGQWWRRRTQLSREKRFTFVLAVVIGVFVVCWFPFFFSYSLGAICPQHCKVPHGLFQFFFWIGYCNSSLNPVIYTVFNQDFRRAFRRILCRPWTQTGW
- Sequence (P22909 whole entry): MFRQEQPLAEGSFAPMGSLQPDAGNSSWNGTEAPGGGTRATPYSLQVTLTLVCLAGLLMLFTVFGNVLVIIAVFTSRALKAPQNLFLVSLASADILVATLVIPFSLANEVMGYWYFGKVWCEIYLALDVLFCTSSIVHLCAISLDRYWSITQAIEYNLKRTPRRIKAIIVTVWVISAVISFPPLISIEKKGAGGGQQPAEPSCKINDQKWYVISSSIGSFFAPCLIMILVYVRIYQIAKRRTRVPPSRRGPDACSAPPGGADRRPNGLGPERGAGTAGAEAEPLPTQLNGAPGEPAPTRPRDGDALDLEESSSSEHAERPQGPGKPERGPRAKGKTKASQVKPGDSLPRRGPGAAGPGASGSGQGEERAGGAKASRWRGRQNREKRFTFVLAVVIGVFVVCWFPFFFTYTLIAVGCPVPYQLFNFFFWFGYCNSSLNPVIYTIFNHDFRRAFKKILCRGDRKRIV
- test summary: Displacement of [3H]RX821002 from alpha2-adrenoceptor in Sprague-Dawley rat brain membranes after 45 mins by liquid scintillation counting
- Type: cell membranes, Membrane
parameter measured: Ki
Provide the measurement as a number trailed by its unit.

Look over these answered cases.
>  <compound>
Fc1ccc2c(cnn2CC2=NCCN2)c1

>  <reading>
32.17 nM

$$$$
>  <compound>
c1ccc2c(c1)cnn2N=C1NCCN1 [MARSANIDINE]

>  <reading>
14.05 nM

$$$$
>  <compound>
Fc1cccc2cnn(N=C3NCCN3)c12

>  <reading>
30.97 nM

$$$$
>  <compound>
Fc1ccc2cnn(CC3=NCCN3)c2c1

>  <reading>
29.73 nM

$$$$

Could you now look at the following compound, please?
Consider the compound Fc1ccc2cnn(N=C3NCCN3)c2c1 and give its measured Ki. 26.2 nM
